Tested on: A2780/AD cell line
Format: cell-based, human

molecule	cytotoxic activity in words
O=P([O-])(O)OP(=O)([O-])O.[Co+2].c1cnc2c(c1)ccc1cccnc12.c1cnc2c(c1)ccc1cccnc12 [compound 1, [Co(phen)2(H2P2O7)].4H2O]	low nanomolar range
O.O.O.O.O.O.O.O.O.O.O.O.O.O.O.O=P([O-])([O-])OP(=O)([O-])[O-].[Cu+2].[Na+].[Na+].c1cnc2c(c1)ccc1cccnc12 [compound 4, {[Cu(phen)(H2O)(P2O7)] [Na2(H2O)8]}.6H2O]	low nanomolar range
O.O=P([O-])(O)OP(=O)([O-])O.[Cu+2].c1cnc2c(c1)ccc1cccnc12 [compound 3, [Cu(phen)(H2O)(H2P2O7)]]	low nanomolar range
